Where do these numbers come from? They come from patent US20240116985A1.

Quick list: NanoBRET Abs IC50 per entry.
# SUBJECT OF TEST: T1, Bcat-Halo (UniProt P35222 1-781)
# T1 sequence (looked up): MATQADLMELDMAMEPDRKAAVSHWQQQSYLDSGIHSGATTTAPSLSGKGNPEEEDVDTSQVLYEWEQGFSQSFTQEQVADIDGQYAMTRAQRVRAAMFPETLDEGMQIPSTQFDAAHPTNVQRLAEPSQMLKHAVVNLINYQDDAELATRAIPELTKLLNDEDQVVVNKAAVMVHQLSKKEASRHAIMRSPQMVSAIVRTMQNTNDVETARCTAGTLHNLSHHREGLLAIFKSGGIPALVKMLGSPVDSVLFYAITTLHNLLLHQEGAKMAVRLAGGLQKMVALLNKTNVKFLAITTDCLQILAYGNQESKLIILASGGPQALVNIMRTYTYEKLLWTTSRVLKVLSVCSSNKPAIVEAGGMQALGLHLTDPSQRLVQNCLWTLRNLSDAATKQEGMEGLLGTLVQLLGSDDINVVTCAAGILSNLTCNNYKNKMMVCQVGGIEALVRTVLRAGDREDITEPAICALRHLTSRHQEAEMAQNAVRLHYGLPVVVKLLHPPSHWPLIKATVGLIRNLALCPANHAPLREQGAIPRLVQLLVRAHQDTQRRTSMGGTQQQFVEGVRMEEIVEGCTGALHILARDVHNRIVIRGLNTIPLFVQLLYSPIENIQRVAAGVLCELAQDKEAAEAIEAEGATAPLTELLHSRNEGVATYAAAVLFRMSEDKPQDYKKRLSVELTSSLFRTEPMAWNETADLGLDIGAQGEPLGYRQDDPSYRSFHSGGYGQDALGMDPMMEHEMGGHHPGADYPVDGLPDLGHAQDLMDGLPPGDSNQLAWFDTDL
# PROCEDURE SUMMARY: cell-based or functional assay
Starred links: 1 amine or outer side, 2 acyl side, 3 side chain; linkers in the order of their positions; H or OH if unused. Positions of bridges follow the written chain, without caps; N, C: chain ends. Non-standard residues stand in square brackets, D forms with d. Primed or numbered codes have the meaning given here. PyrS2″ = (S)-3-amino-1-((pent-4-en-1-yloxy)carbonyl)pyrrolidine-3-carboxylic acid (stapling residue), C=CCCCOC(=O)N1CC[C@@](N[*:1])(C(=O)[*:2])C1; B5(4) = 2,2-bis(4-pentenyl)glycine = 2-amino-2-(pent-4-en-1-yl)hept-6-enoic acid (stitching residue), C=CCCCC(CCCC=C)(N[*:1])C(=O)[*:2]; B5(21) = 2-amino-2-(pent-4-en-1-yl)hept-6-enoic acid, bis(4-pentenyl)glycine (stitching residue), C=CCCCC(CCCC=C)(N[*:1])C(=O)[*:2]; PyrS2 = (S)-3-amino-1-((pent-4-en-1-yloxy)carbonyl)pyrrolidine-3-carboxylic acid, C=CCCCOC(=O)N1CC[C@@](N[*:1])(C(=O)[*:2])C1; Phe(3,4-F2) = N[C@@H](Cc1ccc(F)c(F)c1)C(=O)O; Phe(2-Cl) = N[C@@H](Cc1ccccc1Cl)C(=O)O; Bta = N[C@@H](Cc1csc2ccccc12)C(=O)O; αAllylPro = C=CC[C@@]1(C(=O)O)CCCN1; tBuAla = CC(C)(C)C[C@H](N)C(=O)O; 3Thi = N[C@@H](Cc1ccsc1)C(=O)O

[
  {
    "BINDER": "Ac-[αAllylPro]DS[B5(21)]DDAAFL[PyrS2″][3Thi][Bta]L-NH2 (staple 1-4, 4-11) [I-1414]",
    "NanoBRET Abs IC50": "> 20 µM"
  },
  {
    "BINDER": "Ac-[αAllylPro]D[tBuAla][B5(4)]DDAAFL[PyrS2][3Thi]WS-NH2 (staple 1-4, 4-11) [I-1432]",
    "NanoBRET Abs IC50": "14.5 µM"
  },
  {
    "BINDER": "Ac-[αAllylPro]DL[B5(4)]DDAAFL[PyrS2″][Phe(2-Cl)][Bta]L-NH2 (staple 1-4, 4-11; also: staple isomer composition of earlier HPLC peak, Stapled peptide; staple isomer composition of the earlier HPLC peak) [I-1418]",
    "NanoBRET Abs IC50": "> 20 µM"
  },
  {
    "BINDER": "Ac-[αAllylPro]D[tBuAla][B5(4)]DDAAFL[PyrS2][3Thi][Phe(3,4-F2)]S-NH2 (staple 1-4, 4-11) [I-1428]",
    "NanoBRET Abs IC50": "40.2 µM"
  },
  {
    "BINDER": "Ac-[αAllylPro]D[tBuAla][B5(4)]DDAAFL[PyrS2][3Thi]WQ-NH2 (staple 1-4, 4-11) [I-1431]",
    "NanoBRET Abs IC50": "14.6 µM"
  },
  {
    "BINDER": "Ac-[αAllylPro]D[tBuAla][B5(4)]DDAAFL[PyrS2][3Thi][Phe(3,4-F2)]Q-NH2 (staple 1-4, 4-11) [I-1427]",
    "NanoBRET Abs IC50": "30.4 µM"
  }
]
